assay: Pharmacokinetic study in rats after single ocular instillation; details: rat, retina of the dosed eye, topical or ocular
OBSERVABLE: Tmax (h)

> print(dat)
                               given.smiles  readout.unit  reported.result
1  Cc1ccc(Nc2nccc(N(C)c3ccc4c(C)n(C)nc4c3)n2)cc1S(N)(=O)=O.Cl             h              120

###

experiment: Pharmacokinetic study in rats after single ocular instillation; settings: rat, plasma, topical or ocular
OBSERVABLE: Tmax (min)

> print(dat)
                               given.smiles  observable  reported.result
1  Cc1ccc(Nc2nccc(N(C)c3ccc4c(C)n(C)nc4c3)n2)cc1S(N)(=O)=O.Cl        Tmax               30

###

assay: Pharmacokinetic study in rats after single ocular instillation; conditions: rat, choroid/sclera of the nondosed eye, topical
OBSERVABLE: concentration at 0.5 h

> print(dat)
                                   compound              observable  reported.result
1  Cc1ccc(Nc2nccc(N(C)c3ccc4c(C)n(C)nc4c3)n2)cc1S(N)(=O)=O.Cl [Pazopanib]  concentration at 0.5 h        11.3 ng/g

###

assay: in vivo; settings: rat, in vivo, topical or ocular, tmax, plasma, single ocular instillation, regorafenib 21.2 mg/mL or pazopanib 4.9 mg/mL, 10 μL/eye
OBSERVABLE: Tmax

> print(dat)
                                   compound  observable  reported.result
1  CNC(=O)c1cc(Oc2ccc(NC(=O)Nc3ccc(Cl)c(C(F)(F)F)c3)c(F)c2)ccn1.O [Regorafenib]        Tmax              7 h

###

assay: in vivo; settings: rat, in vivo, topical or ocular, tmax
OBSERVABLE: Tmax (min)

> print(dat)
                                   compound  readout.unit  reported.result
1  CNC(=O)c1cc(Oc2ccc(NC(=O)Nc3ccc(Cl)c(C(F)(F)F)c3)c(F)c2)ccn1.O [Regorafenib]           min               30

###

test: in vivo; details: rat, in vivo, topical or ocular, AUC0‐∞, plasma, single ocular instillation, regorafenib 21.2 mg/mL or pazopanib 4.9 mg/mL, 10 μL/eye
OBSERVABLE: AUC (ng·h/mL)

> print(dat)
                               given.smiles  observable  reported.result
1  CNC(=O)c1cc(Oc2ccc(NC(=O)Nc3ccc(Cl)c(C(F)(F)F)c3)c(F)c2)ccn1.O         AUC             1060

###

experiment: in vivo; conditions: rat, in vivo, topical or ocular, Cmax, choroid/sclera of dosed eye, single ocular instillation, regorafenib 21.2 mg/mL or pazopanib 4.9 mg/mL, 10 μL/eye
OBSERVABLE: Cmax (ng/g)

> print(dat)
                               given.smiles  observable  readout.unit  reported.result
1  CNC(=O)c1cc(Oc2ccc(NC(=O)Nc3ccc(Cl)c(C(F)(F)F)c3)c(F)c2)ccn1.O        Cmax          ng/g             1310

###

assay: Pharmacokinetic study in rats after single ocular instillation; settings: rat, plasma, topical or ocular, AUC0‐∞, single ocular instillation, regorafenib 21.2 mg/mL or pazopanib 4.9 mg/mL, 10 μL/eye
OBSERVABLE: AUC (ng·h/mL)

> print(dat)
                               given.smiles  reported.result
1  Cc1ccc(Nc2nccc(N(C)c3ccc4c(C)n(C)nc4c3)n2)cc1S(N)(=O)=O.Cl             1300

###

assay: Pharmacokinetic study in rats after single ocular instillation; settings: rat, plasma, topical or ocular;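 also: drug levels in plasma and homogenized choroid/sclera and retina quantified by LC/MS/MS, parameters derived from mean concentrations, t1/2 from terminal log-linear slope, AUC via linear trapezoids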
OBSERVABLE: half-life (h)

> print(dat)
                               given.smiles  reported.result
1  Cc1ccc(Nc2nccc(N(C)c3ccc4c(C)n(C)nc4c3)n2)cc1S(N)(=O)=O.Cl             20.1
